- PROTOCOL_NOTES: in vivo
- EXPERIMENTAL_SETUP: mouse, ip, 15.6 mg/kg
MEASUREMENT_TYPE: mortality at 336 h (%)
Give just the numeric value; % need not be written.

CCCCCCCC[N+](C)(C)CCOC(=O)C(C)c1ccc(CC(C)C)cc1 (centres unmarked) :: 0

Now examine the next entry.
Give reported mortality at 336 h value for `CCCCCCCCCC[N+](C)(C)CCOC(=O)Cc1c(C)n(C(=O)c2ccc(Cl)cc2)c2ccc(OC)cc12` 0

###

- Test system: Cryptococcus neoformans
In this section we review reported MIC values for a set of molecules.

Consider the following illustrative entries.
CCCCCCCCCC[N+](C)(C)CCOC(=O)Cc1c(C)n(C(=O)c2ccc(Cl)cc2)c2ccc(OC)cc12 :: ≤ 5 µg/mL
CCCCCCCC[N+](C)(C)CCOC(=O)C(C)c1ccc(CC(C)C)cc1 (stereo not shown) :: ≤ 5 µg/mL
CCCCCCCCCCCC[N+](C)(C)CCOC(=O)Cc1c(C)n(C(=O)c2ccc(Cl)cc2)c2ccc(OC)cc12 :: ≤ 5 µg/mL

Now examine the next entry.
Find the measured MIC of N=C(NCCCCCCNC(=N)NC(=N)Nc1ccc(Cl)cc1)NC(=N)Nc1ccc(Cl)cc1 [Chlorexidine, Chlorexidine gluconate, reference compound] with Cryptococcus neoformans as test system. 40 µg/mL
